# TESTED_ON: T1, human RGMc (human, UniProt Q6ZVN8 36-400, limits assumed)
# T1 construct: also called hRGMc
# T1 sequence: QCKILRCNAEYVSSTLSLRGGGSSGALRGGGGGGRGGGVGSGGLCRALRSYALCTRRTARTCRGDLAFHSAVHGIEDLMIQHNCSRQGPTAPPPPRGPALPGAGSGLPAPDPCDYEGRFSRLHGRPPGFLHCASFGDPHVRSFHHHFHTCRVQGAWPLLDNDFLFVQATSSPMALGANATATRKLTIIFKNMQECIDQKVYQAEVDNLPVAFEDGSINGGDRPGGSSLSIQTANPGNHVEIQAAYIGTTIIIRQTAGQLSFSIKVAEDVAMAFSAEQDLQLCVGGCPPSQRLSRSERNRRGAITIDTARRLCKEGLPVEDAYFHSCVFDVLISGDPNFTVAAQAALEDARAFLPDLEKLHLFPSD
# ASSAY_REMARKS: BIAcore; Ab captured via anti-hIgG Fc on CM5 chip, antigen injected; 1:1 Langmuir fit
MEASUREMENT_KIND: kon (M⁻¹ s⁻¹)

• RGMA-h5F9Vh7a/pJP291 hIgG1/K mut (antibody, V domains shown, Tested as IgG; also called h5F9.AM4; H5F9AM.4) VH: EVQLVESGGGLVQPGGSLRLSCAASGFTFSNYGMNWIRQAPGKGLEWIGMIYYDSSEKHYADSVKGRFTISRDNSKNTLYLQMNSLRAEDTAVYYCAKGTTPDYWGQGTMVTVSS VL: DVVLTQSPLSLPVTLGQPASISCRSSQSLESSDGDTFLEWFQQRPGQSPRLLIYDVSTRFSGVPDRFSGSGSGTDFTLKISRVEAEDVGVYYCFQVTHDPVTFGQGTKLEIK = 7.85e+06
• RGMA-h5F9pJP302/pJP303 hIgG1/K mut (antibody, V domains shown, Tested as IgG; also called h5F9.AM11; H5F9AM.11) VH: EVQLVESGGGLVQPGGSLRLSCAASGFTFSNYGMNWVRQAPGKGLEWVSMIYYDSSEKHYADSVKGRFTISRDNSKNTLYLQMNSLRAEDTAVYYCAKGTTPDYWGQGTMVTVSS VL: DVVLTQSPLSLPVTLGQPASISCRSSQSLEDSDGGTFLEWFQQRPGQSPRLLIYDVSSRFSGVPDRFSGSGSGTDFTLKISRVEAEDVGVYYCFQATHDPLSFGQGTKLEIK = 5.05e+06
• humanized antibody 5F9.23 (antibody, V domains shown, also called h5F9.23; H5F9.23) VH: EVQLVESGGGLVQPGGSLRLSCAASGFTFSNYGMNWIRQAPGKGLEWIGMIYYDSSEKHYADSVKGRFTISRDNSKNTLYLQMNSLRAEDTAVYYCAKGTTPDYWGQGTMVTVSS VL: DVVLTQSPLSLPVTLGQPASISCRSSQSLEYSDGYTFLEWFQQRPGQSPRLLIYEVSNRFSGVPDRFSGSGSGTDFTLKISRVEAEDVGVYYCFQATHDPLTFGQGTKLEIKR = 830000
• RGMA-h5F9pJP297/pJP298 hIgG1/K mut (antibody, V domains shown, Tested as IgG; also called h5F9.AM8; H5F9AM.8) VH: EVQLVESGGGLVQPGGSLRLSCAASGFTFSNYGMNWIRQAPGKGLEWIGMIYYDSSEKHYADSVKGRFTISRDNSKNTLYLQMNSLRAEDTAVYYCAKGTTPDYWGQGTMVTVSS VL: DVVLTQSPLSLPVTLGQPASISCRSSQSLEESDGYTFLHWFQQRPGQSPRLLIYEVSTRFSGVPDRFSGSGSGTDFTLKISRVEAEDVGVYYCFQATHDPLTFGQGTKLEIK = 3.95e+06
• RGMA-h5F9pJP297/pJP299 hIgG1/K mut (antibody, V domains shown, Tested as IgG; also called h5F9.AM9; H5F9AM.9) VH: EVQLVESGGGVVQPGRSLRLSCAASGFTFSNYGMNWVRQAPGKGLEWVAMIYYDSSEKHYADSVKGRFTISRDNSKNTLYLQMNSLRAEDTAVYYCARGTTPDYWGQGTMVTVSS VL: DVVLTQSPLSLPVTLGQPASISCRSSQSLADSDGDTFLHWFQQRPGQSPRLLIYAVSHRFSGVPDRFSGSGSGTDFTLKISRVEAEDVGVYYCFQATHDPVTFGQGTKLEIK = 1.55e+07
